# target-under-test: HIV-1 integrase wild-type (IN1-288) (Human immunodeficiency virus 1, UniProt P12497 P12497:1148-1435)
# protocol-text: inhibition; 3'-process column; strand transfer column 0.060 (headings appear swapped)
# measurement-parameters: intermolecular G4
assay-metric: IC50 (nM)
Respond numerically; units are nM and should not be typed.

// returns reported IC50 for input GCGGGGCTCCATGGGGGTCG (structured_DNA, PS pattern g*c*gggc*t*c*c*a*tggggg*t*c*g (as printed in table footnote)) [S935833]
45
